# assay_method_text: splicing luciferase reporter signal modulators, primary screen, spliceosome inhibition project, cell-based, HEK293, splice +/- reporter (AID 1101);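 also: HEK293 cells carrying a splicing-competent luciferase reporter gene; test concentration not given here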
# run_parameters: luminescence, 24 h, higher = more signal, called active from +8 up or from −8 down
We use -0.8 as the dividing line for z-score: on or above the line is t, below is f.

See these solved cases before continuing.
Reported z-score reaches at least -0.8 for O=C1O[C@H](c2ccccc2)[C@H](c2ccccc2)N2[C@H]1[C@@H](C(=O)Nc1nc3ccccc3s1)[C@]1(C(=O)Nc3ccc(C#CC4=CCCCC4)cc31)[C@H]2c1ccccc1OCCO ?
f

Does the reported z-score for Cc1ccc(S[C@]2(C(=O)O)CC(=O)N(Cc3cc(C(F)(F)F)cc(C(F)(F)F)c3)[C@@H]2c2ccc(CO)cc2I)cc1 fall at or above the -0.8 mark?
f

Check the entry C=C(CCCC)/C(=C/C[C@@H](OC(=O)c1ccncc1)c1cccc(OCCO)c1)c1cc(C(=O)OC)ccc1OC : does z-score equal or exceed -0.8?
t

Form field: z-score at least -0.8? Entry: CC1CC/C=C\[C@H]2OC34C=CCN(Cn5nnc6ccccc65)C(=O)[C@H]3N(C(C)CO)C(=O)[C@@H]4C2C(=O)O1 (stereo not given in full)
t

Could you tell me if the measured z-score of COc1ccc(CCN2C(=O)[C@@]3(c4ccc([N+](=O)[O-])cc4)CC(=O)N(CC45CC6CC(CC(C6)C4)C5)[C@@H]3c3ccc(CO)cc32)cc1 reaches -0.8 or more?
t

State whether the measured z-score reaches -0.8, counting equality as reaching it, for O=C1C[C@@](C(=O)NCCN2CCOCC2)(c2ccc([N+](=O)[O-])cc2)[C@@H](c2ccc(CO)cc2)N1C1CCCCC1
t

Continuing:
Check this molecule for z-score at or above -0.8: C#CCCCON=C1C[C@@H](O)[C@@H](O)[C@@H]2[C@@H]3C(=O)N(Cc4ccc5c(c4)OCO5)C(=O)[C@@H]3CC[C@H]12
t

Entry C[C@@H]1CC[C@H]2C(=O)N3[C@@H](CC[C@@H](C)[C@@H]3c3cccc(N4CCOCC4)c3)C(=O)N2[C@H]1c1cccc(N2CCOCC2)c1 : is its z-score no less than -0.8?
t

Exam item: decide whether the reported z-score for CSCC[C@@H]1NC(=O)CC=C[C@@H](C)COC(=O)[C@H](CCSC)NC(=O)CC=C[C@@H](C)COC1=O is at least -0.8.
f

Determine whether measured z-score meets or exceeds -0.8 for CCCC=C(CCC)[C@@H](NS(=O)(=O)c1ccc(-c2ccccc2)cc1)c1ccc(C(=O)OC)cc1
f

Entry Cc1cc(C)c(C(O)C2C=CC3C(=O)N(C)C(=O)C3N2N2CCCCC2)c(C)c1 (stereo not given) : is its z-score no less than -0.8?
t

Is it the case that O=C1C[C@@](C(=O)NC2CC2)(c2ccc([N+](=O)[O-])cc2)[C@@H](c2ccc(CO)cc2I)N1CC12CC3CC(CC(C3)C1)C2 has z-score reaching or exceeding -0.8?
f

Check this molecule for z-score at or above -0.8: COc1ccc([Si](C)(C)[C@H]2[C@H](CCO)O[C@@]3(C(=O)N(Cc4ccc(N5CCCCC5=O)cc4)c4ccccc43)[C@@H]2C)cc1
t

In plain terms: is recorded z-score at least -0.8 for C=C(CCCC)C(=O)CC[C@@H](OC(C)=O)c1ccccc1OCCO ?
t
